measurement_protocol: Cytotoxicity against ICR mouse macrophages assessed as cell viability at 1 mg/kg/day after 72 hrs by MTT assay
Assay type: organism-based, Macrophage
test_parameters: read-out: Activity
result_type: viability at 72 h

Field viability at 72 h (entry `O=C(C[C@@H]1NCCC[C@H]1O)Cn1cnc2ccccc2c1=O` ) reads > 90%
